Provide the recorded Ratio pH 7/pH 5 for the entries that follow.
molecular target: T1, human serum albumin (human, UniProt P02768 25-609); test: SPR (Biacore), ratio of the off rates at the two pH
T1 construct: also called HSA
Note: the reply should be a number with no unit written.

Task item: Which Ratio pH 7/pH 5 is reported for this binder? 4C5 (VHH, Tested as periplasmic extract) VHH: EVQLVESGGGLVQAGDSLRLSCAASGRPFSAYVMGWFRRAPGKEREFVGGINWNSANTWYTDSVLGRFTISKDNAKNTVYLQMNSLKPEDTAVYYCAAAGGVGYYRYERQYDYWGQGTQVTVSS
Reply: 2.44

Task item: Please give the measured Ratio pH 7/pH 5 for this binder: 4B8 (VHH, Tested as periplasmic extract) VHH: EVQLVESGGGLVQAGGSLRLSCAASGGTYSGNAMAWFRQAPGKEREFVAGIDWSSENTRYIDSVKGRFTISRDNAKNTMYLQMNSLKPEDTAVYYCAAGTSWGALASRLEAAYSSWGQGTQVTVSS
Reply: 2.43

Task item: Which measured Ratio pH 7/pH 5 value corresponds to 4A2 (VHH, Tested as periplasmic extract) VHH: EVQLVESGGGLVQAGGSLRLSCAASGLSFSSYAMGWFRQAPGKEREFVAAIRRREGNSYYADSVKGRFTISRDSAKNTVYLQMNSLKPEDTALYSCAATAPHYSGSFAYAGGYDYWGQGTQVTVSS ?
Reply: 3.54

Task item: Quick one: Ratio pH 7/pH 5 for 4D5 (VHH, Tested as periplasmic extract) VHH: EVQLVESGGGLVQAGGSLRLSCAASGLSFSKYAMGWFRQAPGKQREYVAVISSSDTTYYTNSAKGRFTISRDNAENTVYLQMNSLKPEDTAVYFCAADSYVTALQTLTQISYWGQGTQVTVSS ?
Reply: 1.29
